Source of measurements: patent US4946941A

system: Staphylococcus aureus 3131 (methicillin resistant); test: In vitro antibacterial activity, agar dilution method (MIC); format: cell-based; settings: 37° C., 18-20 hrs
Record form. Attribute: MIC. Fill in for each entry.
Number only, in µg/mL; omit the unit.

Input line: Give recorded MIC with Staphylococcus aureus 3131 (methicillin resistant) for the following compound: `CN[C@H](CC(C)C)C(=O)N[C@H]1C(=O)N[C@@H](CC(N)=O)C(=O)N[C@H]2C(=O)N[C@H]3C(=O)N[C@H](C(=O)N[C@H](C(=O)O)c4cc(O)cc(O)c4-c4cc3ccc4O)[C@H](O[C@H]3C[C@](C)(N)[C@@H](O)[C@H](C)O3)c3ccc(c(Cl)c3)Oc3cc2cc(c3O[C@@H]2O[C@H](CO)[C@@H](O)[C@H](O)[C@H]2O[C@H]2C[C@H](O)[C@@H](O)[C@H](C)O2)Oc2ccc(cc2)[C@H]1O`
Output line: 1.56

Input line: What MIC appears in the records for this compound with Staphylococcus aureus 3131 (methicillin resistant)? `CN[C@H](CC(C)C)C(=O)N[C@H]1C(=O)N[C@@H](CC(N)=O)C(=O)N[C@H]2C(=O)N[C@H]3C(=O)N[C@H](C(=O)N[C@H](C(=O)O)c4cc(O)cc(O)c4-c4cc3ccc4O)[C@H](O[C@H]3C[C@](C)(N)[C@@H](O)[C@H](C)O3)c3ccc(c(Cl)c3)Oc3cc2cc(c3O)Oc2ccc(cc2)[C@H]1O`
Output line: 0.78

Input line: Which MIC is reported with Staphylococcus aureus 3131 (methicillin resistant) for this entry: CN[C@H](CC(C)C)C(=O)N[C@H]1C(=O)N[C@@H](CC(N)=O)C(=O)N[C@H]2C(=O)N[C@H]3C(=O)N[C@H](C(=O)N[C@H](C(=O)O)c4cc(O)cc(O)c4-c4cc3ccc4O)[C@H](O[C@H]3C[C@](C)(N)[C@@H](O)[C@H](C)O3)c3ccc(c(Cl)c3)Oc3cc2cc(c3O[C@@H]2O[C@H](CO)[C@@H](O)[C@H](O)[C@H]2O)Oc2ccc(cc2)[C@H]1O [Compd. C, des-(4-epi-vancosaminyl)-PA-42867-A] ?
Output line: 1.56

====

Exercise: for every item that follows, state its recorded MIC.
system: Streptococcus agalactica SR1247; assay: In vitro antibacterial activity, agar dilution method (MIC); format: cell-based; conditions: agar dilution with 0.5% horse serum, 37° C., 18-20 hrs
Just the number in mg/L, nothing appended.

Input line: Which MIC is listed for `CN[C@H](CC(C)C)C(=O)N[C@H]1C(=O)N[C@@H](CC(N)=O)C(=O)N[C@H]2C(=O)N[C@H]3C(=O)N[C@H](C(=O)N[C@H](C(=O)O)c4cc(O)cc(O)c4-c4cc3ccc4O)[C@H](O[C@H]3C[C@](C)(N)[C@@H](O)[C@H](C)O3)c3ccc(c(Cl)c3)Oc3cc2cc(c3O)Oc2ccc(cc2)[C@H]1O` ?
Output line: 0.78

Input line: Give the measured MIC of CN[C@H](CC(C)C)C(=O)N[C@H]1C(=O)N[C@@H](CC(N)=O)C(=O)N[C@H]2C(=O)N[C@H]3C(=O)N[C@H](C(=O)N[C@H](C(=O)O)c4cc(O)cc(O)c4-c4cc3ccc4O)[C@H](O[C@H]3C[C@](C)(N)[C@@H](O)[C@H](C)O3)c3ccc(c(Cl)c3)Oc3cc2cc(c3O[C@@H]2O[C@H](CO)[C@@H](O)[C@H](O)[C@H]2O)Oc2ccc(cc2)[C@H]1O [Compd. C, des-(4-epi-vancosaminyl)-PA-42867-A] .
Output line: 0.78

Input line: So what does the record say about MIC for `CN[C@H](CC(C)C)C(=O)N[C@H]1C(=O)N[C@@H](CC(N)=O)C(=O)N[C@H]2C(=O)N[C@H]3C(=O)N[C@H](C(=O)N[C@H](C(=O)O)c4cc(O)cc(O)c4-c4cc3ccc4O)[C@H](O[C@H]3C[C@](C)(N)[C@@H](O)[C@H](C)O3)c3ccc(c(Cl)c3)Oc3cc2cc(c3O[C@@H]2O[C@H](CO)[C@@H](O)[C@H](O)[C@H]2O[C@H]2C[C@](C)(N)[C@@H](O)[C@H](C)O2)Oc2ccc(cc2)[C@H]1O` ?
Output line: 0.39

Input line: Endpoint output: MIC of `CN[C@H](CC(C)C)C(=O)N[C@H]1C(=O)N[C@@H](CC(N)=O)C(=O)N[C@H]2C(=O)N[C@H]3C(=O)N[C@H](C(=O)N[C@H](C(=O)O)c4cc(O)cc(O)c4-c4cc3ccc4O)[C@H](O[C@H]3C[C@](C)(N)[C@@H](O)[C@H](C)O3)c3ccc(c(Cl)c3)Oc3cc2cc(c3O[C@@H]2O[C@H](CO)[C@@H](O)[C@H](O)[C@H]2O[C@H]2C[C@H](O)[C@@H](O)[C@H](C)O2)Oc2ccc(cc2)[C@H]1O` . Value?
Output line: 0.78
